target.of.assay: Neuropeptide Y receptor type 4 (Homo sapiens, UniProt P50391)
Sequence (P50391 whole entry): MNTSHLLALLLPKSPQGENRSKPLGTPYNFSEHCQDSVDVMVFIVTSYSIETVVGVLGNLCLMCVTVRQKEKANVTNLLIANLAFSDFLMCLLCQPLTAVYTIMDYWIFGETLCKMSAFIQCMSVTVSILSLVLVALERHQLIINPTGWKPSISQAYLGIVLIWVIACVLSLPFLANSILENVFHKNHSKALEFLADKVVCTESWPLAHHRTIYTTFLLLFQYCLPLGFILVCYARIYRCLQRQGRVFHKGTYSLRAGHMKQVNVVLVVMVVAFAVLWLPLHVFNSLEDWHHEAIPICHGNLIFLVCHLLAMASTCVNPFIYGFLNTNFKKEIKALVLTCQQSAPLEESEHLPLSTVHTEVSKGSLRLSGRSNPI
assay.overview: Intrinsic activity at human NPY Y4 receptor expressed in CHO cells co-expressing Gqi5-mtAEQ assessed as induction of calcium mobilization by aequorin luminescence assay relative to pancreatic polypeptide
Assay type: functional, cell-based
property.label: Intrinsic activity
Keep the answer to the number alone.

Incoming: Which Intrinsic activity reading was recorded for the compound CC[C@H](C)[C@H](N)C(=O)N[C@H]1CCC(=O)NC[C@@H](C(=O)N[C@@H](Cc2ccc(O)cc2)C(=O)N[C@@H](CCCN=C(N)N)C(=O)N[C@@H](CC(C)C)C(=O)N[C@@H](CCCN=C(N)N)C(=O)N[C@@H](Cc2ccc(O)cc2)C(N)=O)NC(=O)[C@@H]2CCCN2C(=O)[C@H](NC(=O)[C@@H](N)[C@@H](C)CC)CCC(=O)NC[C@H](C(=O)N[C@@H](Cc2ccc(O)cc2)C(=O)N[C@@H](CCCN=C(N)N)C(=O)N[C@@H](CC(C)C)C(=O)N[C@@H](CCCN=C(N)N)C(=O)N[C@@H](Cc2ccc(O)cc2)C(N)=O)NC(=O)[C@@H]2CCCN2C1=O ?
Outgoing: 0.62

###

target.of.assay: Neuropeptide Y receptor type 4 (Homo sapiens, UniProt P50391)
assay.overview: Agonist activity at human NPY Y4 receptor expressed in CHO cells co-expressing Gqi5-mtAEQ assessed as induction of calcium mobilization by aequorin luminescence assay
Type: functional, cell-based
pEC50: −log10 of the molar value. Numbered stars: 1 amine (or outer) side, 2 acyl side, 3 side chain; on linkers, the order of the positions; unused ones are H or OH. Bridge positions count the residues as written; N and C are the ends. Square brackets hold non-standard residues; d marks the D form. Peptide text beside a SMILES is read from it. I, II: the chains in the order shown. X2 = NCCCCNC(=O)/N=C(\N)NCCC[C@H](N[*:1])C(=O)[*:2]; Suberoyl = O=C(CCCCCCC(=O)[*:2])[*:1]
# pEC50 >= 7 gives condition met, anything below gives condition not met

Observe how each entry below is paired with its result.
CC(C)C[C@H](NC(=O)[C@H](CCCNC(=N)N)NC(=O)[C@H](Cc1ccc(O)cc1)NC(=O)CCCCCCC(=O)N[C@@H](Cc1ccc(O)cc1)C(=O)N[C@@H](CCCNC(=N)N)C(=O)N[C@@H](CC(C)C)C(=O)N[C@@H](CCCNC(=N)N)C(=O)N[C@@H](Cc1ccc(O)cc1)C(N)=O)C(=O)N[C@@H](CCCNC(=N)N)C(=O)N[C@@H](Cc1ccc(O)cc1)C(N)=O (I: YRLRY-NH2 / II: YRLRY-NH2; linker I:N-II:N via Suberoyl); condition met
CC(C)C[C@H](NC(=O)[C@H](C)NC(=O)[C@H](Cc1ccc(O)cc1)NC(=O)CCCCCCC(=O)N[C@@H](Cc1ccc(O)cc1)C(=O)N[C@@H](CCCNC(=N)N)C(=O)N[C@@H](CC(C)C)C(=O)N[C@@H](CCCNC(=N)N)C(=O)N[C@@H](Cc1ccc(O)cc1)C(N)=O)C(=O)N[C@@H](CCCNC(=N)N)C(=O)N[C@@H](Cc1ccc(O)cc1)C(N)=O (I: YALRY-NH2 / II: YRLRY-NH2; linker I:N-II:N via Suberoyl); condition not met
CC(C)C[C@H](NC(=O)[C@H](CCCNC(=N)N)NC(=O)[C@H](Cc1ccc(O)cc1)NC(=O)CCCCCCC(=O)N[C@@H](Cc1ccc(O)cc1)C(=O)N[C@@H](CCCN/C(N)=N/C(=O)NCCCCN)C(=O)N[C@@H](CC(C)C)C(=O)N[C@@H](CCCNC(=N)N)C(=O)N[C@@H](Cc1ccc(O)cc1)C(N)=O)C(=O)N[C@@H](CCCNC(=N)N)C(=O)N[C@@H](Cc1ccc(O)cc1)C(N)=O (I: Y[X2]LRY-NH2 / II: YRLRY-NH2; linker I:N-II:N via Suberoyl); condition met

Incoming: # check: pEC50 of CCC(=O)N[C@@H](CCCC[C@H](N)C(=O)N[C@@H](Cc1ccc(O)cc1)C(=O)N[C@@H](CCCNC(=N)N)C(=O)N[C@@H](CC(C)C)C(=O)N[C@@H](CCCNC(=N)N)C(=O)N[C@@H](Cc1ccc(O)cc1)C(N)=O)C(=O)N[C@@H](Cc1ccc(O)cc1)C(=O)N[C@@H](CCCNC(=N)N)C(=O)N[C@@H](CC(C)C)C(=O)N[C@@H](CCCNC(=N)N)C(=O)N[C@@H](Cc1ccc(O)cc1)C(N)=O is greater than or equal to 7
Outgoing: condition met

Incoming: Item: CC(C)C[C@H](NC(=O)[C@H](CCCNC(=N)N)NC(=O)[C@H](Cc1ccc(O)cc1)NC(=O)CCCCCCC(=O)N[C@@H](Cc1ccc(O)cc1)C(=O)N[C@@H](CCCNC(=N)N)C(=O)N[C@@H](CC(C)C)C(=O)N[C@@H](CCCNC(=N)N)C(=O)N[C@@H](Cc1ccc(O)cc1)C(N)=O)C(=O)N[C@@H](C)C(=O)N[C@@H](Cc1ccc(O)cc1)C(N)=O (I: YRLAY-NH2 / II: YRLRY-NH2; linker I:N-II:N via Suberoyl)
Outgoing: condition not met

Incoming: Check CC(C)C[C@H](NC(=O)[C@H](C)NC(=O)[C@H](Cc1ccc(O)cc1)NC(=O)CCCCCCC(=O)N[C@@H](Cc1ccc(O)cc1)C(=O)N[C@@H](C)C(=O)N[C@@H](CC(C)C)C(=O)N[C@@H](CCCNC(=N)N)C(=O)N[C@@H](Cc1ccc(O)cc1)C(N)=O)C(=O)N[C@@H](CCCNC(=N)N)C(=O)N[C@@H](Cc1ccc(O)cc1)C(N)=O (I: YALRY-NH2 / II: YALRY-NH2; linker I:N-II:N via Suberoyl) too.
Outgoing: condition not met
